# Tested on: Enterococcus faecium
# Experiment summary: Antimicrobial activity against vancomycin-resistant Enterococcus faecium t62764(VanB) isolate after overnight incubation by broth microdilution method
# Format: functional
Property: MIC (µM)

        substance         tested_system  reported_measurement
0  H-RRFKFIRWW-OH  Enterococcus faecium                   6.1
1  H-FRRWWKWFK-OH  Enterococcus faecium                   6.1
2  H-AWRFKNIRK-OH  Enterococcus faecium                   223
3  H-VVLKIVRRF-OH  Enterococcus faecium                    60
4  H-KWKIFRRWW-OH  Enterococcus faecium                   6.1
5  H-AVWKFVKRV-OH  Enterococcus faecium                   120

====

# System: Pseudomonas aeruginosa
# Experiment summary: Antimicrobial activity against Pseudomonas aeruginosa H1001 expressing luciferase gene assessed as ratio antimicrobial IC50 for drug to Bac2A peptide by luminescence assay
# Assay type: functional
Property: Ratio IC50

>>> print(df.to_string())
                     substance           tested_system  reported_measurement
 0              H-KIWWWWRKR-OH  Pseudomonas aeruginosa                  0.13
 1              H-KKSKQLWKR-OH  Pseudomonas aeruginosa                  3.23
 2              H-WVRFVYRYW-OH  Pseudomonas aeruginosa                  2.15
 3              H-KWRRWKRWW-OH  Pseudomonas aeruginosa                  0.15
 4              H-RRRKWWIWG-OH  Pseudomonas aeruginosa                  0.57
 5              H-GVRVQRNSK-OH  Pseudomonas aeruginosa                    25
 6              H-RKRTKVTWI-OH  Pseudomonas aeruginosa                  5.11
 7  H-AFRGSRHRM-OH [AFRGSRHRM]  Pseudomonas aeruginosa                 11.36
 8              H-VRIVRVRIR-OH  Pseudomonas aeruginosa                  2.22
 9              H-KRIMKLKMR-OH  Pseudomonas aeruginosa                   6.5
10              H-RVRWWKKRW-OH  Pseudomonas aeruginosa                  0.27
11              H-RRVQRGKWW-OH  Pseudomonas aeruginosa                   6.3
12              H-FRRWWKWFK-OH  Pseudomonas aeruginosa                  0.12
13              H-INRKRRLRW-OH  Pseudomonas aeruginosa                  4.25
14              H-AWKIKKGRI-OH  Pseudomonas aeruginosa                  3.59
15              H-FVVMKRIVW-OH  Pseudomonas aeruginosa                  5.38
16              H-AVWKFVKRV-OH  Pseudomonas aeruginosa                  8.18
17              H-IRMWVKRWR-OH  Pseudomonas aeruginosa                  0.61
18              H-FMWVYRYKK-OH  Pseudomonas aeruginosa                  1.51
19              H-RRFKKWYWY-OH  Pseudomonas aeruginosa                  0.26
20              H-GIKWRSRRW-OH  Pseudomonas aeruginosa                  1.06
21              H-VSGNWRGSR-OH  Pseudomonas aeruginosa                  8.54
22              H-RWMVSKIWY-OH  Pseudomonas aeruginosa                    25
23              H-RKRWLWRWW-OH  Pseudomonas aeruginosa                  0.25
24              H-ARGKSIKNR-OH  Pseudomonas aeruginosa                  8.35
25              H-KNNRRWQGR-OH  Pseudomonas aeruginosa                  6.45
26              H-KRWWKWWRR-OH  Pseudomonas aeruginosa                  0.13
27              H-ASKRVGVRN-OH  Pseudomonas aeruginosa                  8.17
28              H-GRIGGKNVR-OH  Pseudomonas aeruginosa                  9.12
29              H-WRWYWWKKR-OH  Pseudomonas aeruginosa                  0.22

====

# Test system: Pseudomonas aeruginosa
# Experiment summary: Antimicrobial activity against Pseudomonas aeruginosa H1030 after overnight incubation by broth microdilution method
# Assay type: functional
Property: MIC (µM)

        substance  property  censoring_qualifier  reported_measurement
0  H-VVLKIVRRF-OH       MIC                    >                   241
1  H-AIRRWRIRK-OH       MIC                    >                   217
2  H-KRIMKLKMR-OH       MIC                    >                   226
3  H-AWRFKNIRK-OH       MIC                    >                   223
4  H-AVWKFVKRV-OH       MIC                    >                   240
5  H-KWKIFRRWW-OH       MIC                    =                    48
6  H-RKWIWRWFL-OH       MIC                    =                   3.1
7  H-WRWWKIWKR-OH       MIC                    =                    47
8  H-LRWWWIKRI-OH       MIC                    =                    25

====

# Test system: Stenotrophomonas maltophilia
# Experiment summary: Antimicrobial activity against Pseudomonas maltophilia ATCC 13637 after overnight incubation by broth microdilution method
# Type: functional
Decision: MIC beneath 2 µM gives rule met; MIC meeting or exceeding 2 µM gives rule not met.

>>> df
           substance         label
0     H-AWRFKNIRK-OH  rule not met
1     H-RKRLKWWIY-OH  rule not met
2     H-FRRWWKWFK-OH      rule met
3     H-KRIMKLKMR-OH  rule not met
4     H-KWKIFRRWW-OH      rule met
5     H-LRWWWIKRI-OH  rule not met
6     H-IWWKWRRWV-OH      rule met
7  H-RLARIVVIRVAR-OH  rule not met
8     H-VVLKIVRRF-OH  rule not met

====

Items are presented alongside their recorded Ratio IC50.
# Tested on: Pseudomonas aeruginosa
# Experiment summary: Antimicrobial activity against Pseudomonas aeruginosa H1001 expressing luciferase gene assessed as ratio antimicrobial IC50 for drug to Bac2A peptide by luminescence assay
# Type: functional
Property: Ratio IC50

>>> print(df.to_string())
         substance  reported_measurement
 0  H-SFNWKRSGK-OH                    25
 1  H-KKRWVWVIR-OH                  0.35
 2  H-TRGWSLGTR-OH                 12.15
 3  H-KFRKRVWWW-OH                   0.3
 4  H-HGVWGNRKR-OH                  7.95
 5  H-KRWWWWWKR-OH                  0.22
 6  H-RRRKWWIWW-OH                  0.18
 7  H-KRWWIRWWR-OH                  0.21
 8  H-RHWKTWWKR-OH                  0.95
 9  H-WSQNVRTRI-OH                  5.71
10  H-RGKYIRWRK-OH                  3.83
11  H-LRWWWIKRI-OH                  0.33
12  H-GRNGWYRIN-OH                 10.74
13  H-RRMKKLRRK-OH                  4.22
